Molecular target: hGLP-1R (Homo sapiens, UniProt P43220)
Sequence (P43220 24-463): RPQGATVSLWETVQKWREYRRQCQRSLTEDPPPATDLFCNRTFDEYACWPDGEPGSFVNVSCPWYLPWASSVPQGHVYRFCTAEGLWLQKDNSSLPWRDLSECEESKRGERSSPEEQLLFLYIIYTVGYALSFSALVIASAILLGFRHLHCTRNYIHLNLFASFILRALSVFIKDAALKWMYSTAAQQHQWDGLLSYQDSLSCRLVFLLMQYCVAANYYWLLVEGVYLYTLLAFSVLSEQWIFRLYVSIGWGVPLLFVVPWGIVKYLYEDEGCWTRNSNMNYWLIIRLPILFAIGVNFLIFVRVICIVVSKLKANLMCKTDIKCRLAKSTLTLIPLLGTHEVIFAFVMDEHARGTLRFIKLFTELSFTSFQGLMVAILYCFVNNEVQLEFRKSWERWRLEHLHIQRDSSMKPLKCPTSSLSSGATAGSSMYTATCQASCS
Assay: Functional cAMP activity in the presence of 1% HSA
Type: cell-based
Settings: HEK-293 clonal cell line, 1% HSA, geometric mean of relative EC50; read-out: cAMP Rel EC50, hGLP-1R
Starred links: 1 amine or outer side, 2 acyl side, 3 side chain; linkers in the order of their positions; H or OH if unused. Non-standard residues stand in square brackets, D forms with d. Groups on a side chain read outwards from the residue. No end group written: not given here. *: point of attachment. C18 diacid = O=C(O)CCCCCCCCCCCCCCCCC(=O)*; αMePhe(2-F) = C[C@](N)(Cc1ccccc1F)C(=O)O; γGlu = O=C(O)[C@H](CCC(=O)[*:2])N[*:1]; αMe4Pal = C[C@](N)(Cc1ccncc1)C(=O)O; αMeY = C[C@](N)(Cc1ccc(O)cc1)C(=O)O; 4Pal = N[C@@H](Cc1ccncc1)C(=O)O; αMeL = CC(C)C[C@](C)(N)C(=O)O; αMeS = C[C@](N)(CO)C(=O)O; Orn = NCCC[C@H](N)C(=O)O; AEEA = NCCOCCOCC(=O)O; Aib = CC(C)(N)C(=O)O

# Substance, EC50 (nM)
records = [
    ("H-Y[Aib]QGT[αMePhe(2-F)]TSD[4Pal]SI[αMeL]LDKK([γGlu-γGlu-C18 diacid])AQ[Aib][Orn]FIEYLTEGGPSSGEPPPSGSEE-NH2 [Example 638]", 36),
    ("Y[Aib]QGT[αMePhe(2-F)]TSD[4Pal][αMeS]ILLD[Orn]K([γGlu-γGlu-C18 diacid])AQ[Aib][Orn]FI[dE]YLIEGGPSSGEPPPSETE-NH2 [Example 555]", 42),
    ("H-Y[Aib]QGT[αMePhe(2-F)]TSD[4Pal]SI[αMeL]LDKK([γGlu-γGlu-C18 diacid])AQ[Aib][Orn]FIEYLQEGGPSSGEPPPEGSEE-NH2 [Example 653]", 25),
    ("H-Y[Aib]QGT[αMePhe(2-F)]TSD[4Pal]SI[αMeL]LDKK([γGlu-γGlu-C18 diacid])AQ[Aib][Orn]FIEYLSEGGPSSGEPPPSGSEE-NH2 [Example 637]", 76.2),
    ("H-Y[Aib]QGT[αMePhe(2-F)]TSD[4Pal]SI[αMeL]LDKK([γGlu-γGlu-C18 diacid])AQ[Aib][Orn]FIEYLTEGGPSSGEPPPEGSEE-NH2 [Example 652]", 26.8),
    ("H-Y[Aib]QGT[αMePhe(2-F)]TSD[4Pal]SI[αMeL]LDKK([γGlu-γGlu-C18 diacid])AQ[Aib][Orn]FIEYLAEGGPSSGEPPPEGSEE-NH2 [Example 650]", 31.4),
    ("Y[Aib]QGT[αMePhe(2-F)]TSD[4Pal]SI[αMeL]LD[Orn]K([AEEA-γGlu-C18 diacid])AQ[αMe4Pal][Orn]FI[dE][αMeY]LIEGGPSSGEPPPEGEG[dE]-NH2 [Example 692]", 25.2),
    ("H-Y[Aib]QGT[αMePhe(2-F)]TSD[4Pal]SI[αMeL]LDKK([γGlu-γGlu-C18 diacid])AQ[Aib]AFIEYLQEGGPSSGEPPPSGSEE-NH2 [Example 634]", 34.9),
    ("H-Y[Aib]QGT[αMePhe(2-F)]TSD[4Pal]SI[αMeL]LDKK([γGlu-γGlu-C18 diacid])AQ[Aib][Orn]FIEYLSEGGPSSGEPPPEGSEE-NH2 [Example 651]", 53.9),
    ("H-Y[Aib]QGT[αMePhe(2-F)]TSD[4Pal]SI[αMeL]LDKK([γGlu-γGlu-C18 diacid])AQ[Aib]AFIEYLTEGGPSSGEPPPSGSEE-NH2 [Example 633]", 41.2),
    ("H-Y[Aib]QGT[αMePhe(2-F)]TSD[4Pal]SI[αMeL]LDKK([γGlu-γGlu-C18 diacid])AQ[Aib][Orn]FIEYLAEGGPSSGEPPPSGSEE-NH2 [Example 636]", 36.6),
]
